Assay: AP1 Signaling Pathway (AID 357);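 also: ME-180 reporter cells stimulated with EGF at its EC50 level; % is scaled to controls: 0 for no effect and ±100 for the full control effect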
Conditions: ME-180 AP-1-bla reporter, EGF-induced, beta-lactamase ratio, 5 h; at 17.2 µM (top of the series) unless noted
Results filed as inconclusive are left out. Calls of active or inactive are those of the source. Calls follow the shape of the dose curve; as a rule, active = well fitted curve in either direction with a large enough effect (not every such curve was filed as active); inconclusive = small, poorly fitted or top-dose-only effect, or another doubt; inactive = flat fitted curve, though single readings scatter.
Please go through the items and note down their activity change, negative = inhibition.

Req: # get_value(readout='activity change, negative = inhibition', item= Cn1cc(Cl)nc1C(O)c1ccccc1 (stereo not given) )
Resp: 2.37% (inactive)

Req: # get_value(readout='activity change, negative = inhibition', item= COc1ccc2c(c1)nc(N)n2Cc1ccccc1 )
Resp: -1.6% (inactive)

Req: # get_value(readout='activity change, negative = inhibition', item= Cc1c(CCC#N)c(N2CCN(C3CCCCC3)CC2)n2c(nc3ccccc32)c1C#N )
Resp: -16.9% (inactive)

Req: # get_value(readout='activity change, negative = inhibition', item= COc1cc(C(=O)Nc2ccccn2)cc(OC)c1OC )
Resp: 1.72% (inactive)

Req: # get_value(readout='activity change, negative = inhibition', item= COCCNc1nc2c(c(=O)n(Cc3ccc(OC)cc3)c(=O)n2C)n1C )
Resp: -10.1% (inactive)

====

Test: Cell Viability - LYMP2-003 (AID 965);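 also: cells exposed to compounds for 24 h before reading; nearly all actives have a fitted effect of over 50% in size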
Conditions: LYMP2-003 lymphoblastoid cell viability; series mostly up to 92.2 µM
Records with an inconclusive call do not appear. Activity calls are given as the source filed them. The call rests on the fitted dose curve; in most records, active means well fitted cell-killing curve with a large enough effect; inconclusive means small, poorly fitted or top-dose-only effect, or effect the other way; inactive means flat fitted curve, though single readings scatter.
API: response.call in active, inactive

Req: GET /call?item= C=C(C)c1ccccc1 returns the recorded outcome of this test.
Resp: inactive

Req: GET /call?item= O=C=Nc1ccc(Cc2ccc(N=C=O)cc2)cc1 returns the recorded outcome of this test.
Resp: inactive

Req: GET /call?item= CCCCCCCC[N+](CCCCCCCC)(CCCCCCCC)CCCCCCCC returns the recorded outcome of this test.
Resp: active

Req: GET /call?item= O=C(OCC(COC(=O)c1ccccc1)(COC(=O)c1ccccc1)COC(=O)c1ccccc1)c1ccccc1 returns the recorded outcome of this test.
Resp: inactive

Req: GET /call?item= C=CC(=O)OCCOCCOC(=O)C=C returns the recorded outcome of this test.
Resp: active

Req: GET /call?item= CCC(C)Nc1ccc(NC(C)CC)cc1 (stereo not drawn) returns the recorded outcome of this test.
Resp: active

Req: GET /call?item= O=C1OC(O)C(C(Cl)Cl)=C1Cl (stereo not drawn) returns the recorded outcome of this test.
Resp: active

Req: GET /call?item= c1ccc2c(c1)-c1cccc3c1c-2cc1ccccc13 returns the recorded outcome of this test.
Resp: inactive

====

Please go through the items and note down their activity change, negative = inhibition.
Experiment: AP1 Signaling Pathway (AID 357);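 also: ME-180 reporter cells stimulated with EGF at its EC50 level; % is scaled to controls: 0 for no effect and ±100 for the full control effect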
Conditions: ME-180 (cervical carcinoma) AP-1-bla reporter, EGF-induced, beta-lactamase ratio, 5 h; at 17.2 µM (top of the series) unless noted
Records with an inconclusive call do not appear.
Answer in %, number only, no unit symbol.

Req: # get_value(readout='activity change, negative = inhibition', item= Cc1ccc2[nH]c3c(N4CCOCC4)ncnc3c2c1 )
Resp: -7.05

Req: # get_value(readout='activity change, negative = inhibition', item= COc1cccc(C2/C(=C(\O)c3ccc4c(c3)OCCO4)C(=O)C(=O)N2CCN(C)C)c1 (configuration not stated) )
Resp: -3.08

Req: # get_value(readout='activity change, negative = inhibition', item= COc1cccc(C(=O)NCC(=O)n2nc(C)cc2C)c1 )
Resp: 23.4

Req: # get_value(readout='activity change, negative = inhibition', item= COc1ccccc1C1/C(=C(/O)c2ccc(C)cc2)C(=O)C(=O)N1CCN1CCOCC1 (configuration not stated) )
Resp: -9.75

Req: # get_value(readout='activity change, negative = inhibition', item= COc1cc(-c2nn3c(-c4ccco4)nnc3s2)cc(OC)c1OC )
Resp: -2.59

Req: # get_value(readout='activity change, negative = inhibition', item= CC1CN(C2CCN(C(=O)c3ccccc3Cl)CC2)CC(C)O1 (configuration not stated) )
Resp: 6.4

Req: # get_value(readout='activity change, negative = inhibition', item= CCOC(=O)NC(Nc1sc2c(c1C(=O)OC)CCN(C)C2)(C(F)(F)F)C(F)(F)F )
Resp: 12.1

Req: # get_value(readout='activity change, negative = inhibition', item= CC(C)OC(=O)CCNc1n[nH]c(=O)[nH]c1=O )
Resp: 5.78

Req: # get_value(readout='activity change, negative = inhibition', item= CN1C[C@H](C(=O)N[C@]2(C)O[C@]3(O)[C@H]4CCCN4C(=O)[C@H](Cc4ccccc4)N3C2=O)C[C@H]2c3cccc4[nH]cc(c34)C[C@@H]21 )
Resp: 1.56

Req: # get_value(readout='activity change, negative = inhibition', item= CN(C)C=C1C(=O)c2ccccc2C1=O )
Resp: 6.29

Req: # get_value(readout='activity change, negative = inhibition', item= CCC1CC2(C)NC(=O)c3c(sc4c3CC(C)(C)OC4)N2C1=O (configuration not stated) )
Resp: -7.1

Req: # get_value(readout='activity change, negative = inhibition', item= Cn1nccc1C(=O)Nc1ccccc1C(=O)O )
Resp: -2.42

Req: # get_value(readout='activity change, negative = inhibition', item= CN1CC(=O)Nc2ccc(F)cc2C1=O )
Resp: 13.4

Req: # get_value(readout='activity change, negative = inhibition', item= O=C1C2ON(c3ccccc3)C(c3ccncc3)C2C(=O)N1c1ccccc1 (configuration not stated) )
Resp: -0.837

Req: # get_value(readout='activity change, negative = inhibition', item= Cc1cccc(N2C(=O)CC(N3CCN(Cc4ccc(Cl)cc4)CC3)C2=O)c1 (configuration not stated) )
Resp: 1.23

Req: # get_value(readout='activity change, negative = inhibition', item= CCOc1ccc(N=C2C(=O)N(CN3CCOCC3)c3ccccc32)cc1 )
Resp: 2.27

Req: # get_value(readout='activity change, negative = inhibition', item= CCOC(=O)C1CSc2[nH]c(=O)sc2C1c1ccccc1 (configuration not stated) )
Resp: 0.248

Req: # get_value(readout='activity change, negative = inhibition', item= CCOC(=O)c1c(C)[nH]c(/C(C)=N/O)c1C )
Resp: -4.81

Req: # get_value(readout='activity change, negative = inhibition', item= COc1ccc(/C(O)=C2/C(=O)C(=O)N(CCCN(C)C)C2c2ccccc2)cc1OC (configuration not stated) )
Resp: -9.48

Req: # get_value(readout='activity change, negative = inhibition', item= CCCCNC(=O)N1CCOCCOCCN(C(=O)NCCCC)CCOCC1 )
Resp: -5.59

Req: # get_value(readout='activity change, negative = inhibition', item= Nc1ccc2oc(-c3ccccc3Cl)nc2c1 )
Resp: -0.869

Req: # get_value(readout='activity change, negative = inhibition', item= Cn1c(NCc2cccnc2)nc2c1c(=O)n(Cc1ccccc1F)c(=O)n2C )
Resp: -1.33

====

Test system: CP250
Experiment: qHTS profiling for inhibitors of Plasmodium falciparum proliferation (AID 504749); also: nearly all actives have a fitted effect of over 60% in size
Conditions: P. falciparum in erythrocytes, SYBR Green DNA, 72 h; series mostly up to 28.7 µM
Results filed as inconclusive are left out. Active and inactive are the calls of the source. The call rests on the fitted dose curve; in most records, active means well fitted inhibition curve with a large enough effect; inconclusive means small, poorly fitted or top-dose-only effect; inactive means flat fitted curve, though single readings scatter.
API: response.call in yes (1) (active), no (0) (inactive)

Req: GET /call?item= CO/N=C(/C(=O)N[C@@H]1C(=O)N2C(C(=O)O)=C(CSC(=O)c3ccco3)CSC12)c1csc(N)n1 (stereo not given in full) returns the recorded outcome of this test.
Resp: no (0)

Req: GET /call?item= CC(=O)NC1[C@H]([C@H](O)[C@H](O)CO)OC(C(=O)O)=C[C@H]1N=C(N)N (stereo not given in full) returns the recorded outcome of this test.
Resp: no (0)

Req: GET /call?item= CCOc1ccccc1O[C@@H](c1ccccc1)[C@@H]1CNCCO1 returns the recorded outcome of this test.
Resp: no (0)

Req: GET /call?item= C[C@H]1[C@@H](OC(=O)CCC(=O)O)OC2OC3(C)CC[C@H]4[C@H](C)CC[C@@H]1[C@@]24OO3 (stereo not given in full) returns the recorded outcome of this test.
Resp: yes (1)

Req: GET /call?item= CO/N=C(/C(=O)N[C@@H]1C(=O)N2C(C(=O)O)=C(CSc3cnns3)CS[C@H]12)c1csc(N)n1 returns the recorded outcome of this test.
Resp: no (0)

====

Assay: Cell Viability - LYMP1-002 - Assay at 40 hr (AID 994); also: nearly all actives have a fitted effect of over 60% in size; also: potency is read from the fitted curve at half-maximal effect
Conditions: LYMP1-002 lymphoblastoid cell viability; series mostly up to 92.2 µM
Records with an inconclusive call do not appear. The source made the active and inactive calls. Calls come from the whole dose curve; as a rule, active = well fitted cell-killing curve with a large enough effect; inconclusive = small, poorly fitted or top-dose-only effect; inactive = flat fitted curve, though single readings scatter.
readout.label: Potency

Previously resolved entries follow.
Req: # get_value(readout='Potency', item= CCCCCCCC[N+](CCCCCCCC)(CCCCCCCC)CCCCCCCC )
Resp: 3.98 µM (active)

Req: # get_value(readout='Potency', item= Cc1cccc(O)c1C )
Resp: inactive

Req: # get_value(readout='Potency', item= C=CC(=O)OCCOCCOC(=O)C=C )
Resp: 25.1 µM (active)

Req: # get_value(readout='Potency', item= CN(C)c1ccc(C2(c3ccc(N(C)C)cc3)OC(=O)c3cc(N(C)C)ccc32)cc1 )
Resp: inactive

Req: # get_value(readout='Potency', item= O=C1OC2(c3cc(Br)c(O)c(Br)c3Oc3c2cc(Br)c(O)c3Br)c2c(Cl)c(Cl)c(Cl)c(Cl)c21 )
Resp: inactive

Req: # get_value(readout='Potency', item= O=Cc1ccc(Cl)c(Cl)c1 )
Resp: inactive

Next:
Req: # get_value(readout='Potency', item= c1ccc2c(c1)-c1cccc3c1c-2cc1ccccc13 )
Resp: inactive

Req: # get_value(readout='Potency', item= ClC1=C(Cl)C(Cl)(Cl)C(Cl)=C1Cl )
Resp: inactive

Req: # get_value(readout='Potency', item= O=[N+]([O-])c1cc([N+](=O)[O-])c2ccc(S(=O)(=O)O)cc2c1O )
Resp: inactive

Req: # get_value(readout='Potency', item= CNc1ccc(O)cc1 )
Resp: 25.1 µM (active)

Req: # get_value(readout='Potency', item= CN1[C@H]2CC(OC(=O)[C@H](CO)c3ccccc3)C[C@H]1[C@H]1O[C@H]12 (stereo partly specified) )
Resp: inactive
